I'd be grateful if you could share measured Tm for these entries.
# procedure_text: melting temperature; fluorescence melt of hairpins on a sequencing array, two-state fit, raised by 9.35 °C to match UV melts
# cond: sodium 0.088 M
Give bare numbers, in °C.

[[record]]
construct_sequence = "GCGTTGCGAAAGCTAGGC ((.(.((....)).).))"
unit_annotation = "°C"
value = 48.9


For every record below, what is its Tm?
1. GGGATCGAAAGATTCCCC ((((((....)))..)))
2. GTACCTGGAAACGGGTAC (((((.(....).)))))

### Response
1: 49.3; 2: 50.4

###

# procedure_text: folding enthalpy; higher = less favourable; fluorescence melt of hairpins on a sequencing array, two-state fit
# cond: sodium 0.088 M
readout_name: folding enthalpy

[[record]]
construct_sequence = "GCGTTGGTACGC ((((....))))"
value = "-20.9 kcal/mol"

[[record]]
construct_sequence = "GCTAGGCGAAAGCCGTGC ((..(((....)))..))"
value = "-13.9 kcal/mol"

[[record]]
construct_sequence = "GGCATACGAAAGTACGCC (((.(((....))).)))"
value = "-32.1 kcal/mol"

[[record]]
construct_sequence = "GCACGTGGAAACACGCGC ((.((((....)))).))"
value = "-38.4 kcal/mol"

[[record]]
construct_sequence = "GTCCATGAAAATGGAC ((((((....))))))"
value = "-31.7 kcal/mol"


For every record below, what is its folding enthalpy?
1. GTCTGCGGAAACGCGGAC (((.(((....))).)))
2. GCTTAGCGAAAGCGGAGC (((..((....))..)))
3. GTTCCGGGAAACCGGGAC ((.((((....)))).))
4. GTGGTCGGAAACGGCTAC ((.(.((....)).).))
5. GCCGTCGAAAGACGTGGC ((((((....)))..)))
6. GGAGGGGGAAACCCCCCC ((.((((....)))).))

### Response
1. -39.2 kcal/mol
2. -16.8 kcal/mol
3. -35.5 kcal/mol
4. -25.8 kcal/mol
5. -14.1 kcal/mol
6. -14.9 kcal/mol

For every record below, what is its folding enthalpy?
1. GCCTCGCGAAAGCGGGC (((.(((....))))))
2. GACCGAGGAAACTCAGTC (((.(((....))).)))
3. GCTACGCGAAAGCAAAGC (((..((....))..)))
4. GGTAACGGAAACGTTACC (((((((....)))))))
5. GCACAGCGAAAGCCGGGC ((.(.((....)).).))
6. GCGTGCGAAAGCAACCGC ((((((....)))..)))

### Response
1. -16.4 kcal/mol
2. -21 kcal/mol
3. -13.2 kcal/mol
4. -45.6 kcal/mol
5. -22.4 kcal/mol
6. -18.6 kcal/mol

###

I'd be grateful if you could share measured Tm for these entries.
# procedure_text: melting temperature; fluorescence melt of hairpins on a sequencing array, two-state fit, raised by 9.35 °C to match UV melts
# cond: sodium 0.088 M

Worked cases, Tm given:
[[record]]
construct_sequence = "GTGTTACGAAAGTACCAC (((.(((....))).)))"
value = "43.2 °C"

[[record]]
construct_sequence = "GCCTTGCGAAAGCATTGC ((..(((....)))..))"
value = "48.2 °C"


For every record below, what is its Tm?
1. CGATTGAAAAATCG (((((....)))))
2. GATCGTTCGGACGATC ((((((....))))))

### Response
1: 46 °C; 2: 56.9 °C

###

# procedure_text: melting temperature; fluorescence melt of hairpins on a sequencing array, two-state fit, raised by 9.35 °C to match UV melts
# cond: sodium 0.088 M
// thresholds for Tm classes: band 1 = under 40 °C, band 2 = from 40 °C up to 50 °C, band 3 = 50 °C and over

Before answering, review these 5 worked examples.
[[record]]
construct_sequence = "GTATTCGGAAACGAACAC ((.((((....)))).))"
class_assignment = "band 1"

[[record]]
construct_sequence = "GGTGCTGGAAACGGCATC (.(((.(....).))).)"
class_assignment = "band 2"

[[record]]
construct_sequence = "GCTACTGGAAACAATAGC ((((.((....)).))))"
class_assignment = "band 1"

[[record]]
construct_sequence = "GCCAGCGAAAGCTGTGGC ((((((....)))..)))"
class_assignment = "band 3"

[[record]]
construct_sequence = "GTTCGACGAAAGTCTAAC (((.(((....))).)))"
class_assignment = "band 2"


### Prompt Which category fits this record: GTATTCGGAAACGGATAC ((((.((....)).))))
### Response band 2

### Prompt Which category fits this record: GGGCTTCGAAAGAACCCC (((.(((....))).)))
### Response band 2

### Prompt Which category fits this record: GCGGTGGGAAACTGCCGC ((((..(....)..))))
### Response band 3

### Prompt Which category fits this record: GTCCGCGAAAGCGTAGAC ((((((....)))..)))
### Response band 2

### Prompt Which category fits this record: CGCCCGGAAACGGTGGCG ((((((....)))..)))
### Response band 3

### Prompt Which category fits this record: GGTACACGAAAGTGCACC (((.(((....))).)))
### Response band 3

###

# procedure_text: melting temperature; fluorescence melt of hairpins on a sequencing array, two-state fit, raised by 9.35 °C to match UV melts
# cond: sodium 0.088 M
Tm vs 50 °C: less than gives True; not less than gives False.

[[record]]
construct_sequence = "AGAGTGAAAACTCT (((((....)))))"
class_assignment = "True"

[[record]]
construct_sequence = "GTCTAGGGAAACCTGGAC (((.(((....))).)))"
class_assignment = "True"

[[record]]
construct_sequence = "CGAAACGGAAACGTGTCG (((.(((....))).)))"
class_assignment = "True"


### Prompt Given GATCACCAGCGTGATC ((((((....)))))) , is recorded Tm strictly lower than 50 °C?
### Response False

### Prompt Given GCCAAGCCGAAAGGCGGC (((..(((....)))))) , is recorded Tm strictly lower than 50 °C?
### Response False

### Prompt Given CGCGGAAAAACAACAACCGCG ((.................)) , is recorded Tm strictly lower than 50 °C?
### Response True

### Prompt Given GATGCCGGAAACGGTATC (((.(((....))).))) , is recorded Tm strictly lower than 50 °C?
### Response False

### Prompt Given GATCGGTTTTCCGATC ((((((....)))))) , is recorded Tm strictly lower than 50 °C?
### Response False

### Prompt Given GATTTGGGAAACCAGATC (((.(((....))).))) , is recorded Tm strictly lower than 50 °C?
### Response True

###

# procedure_text: folding enthalpy; higher = less favourable; fluorescence melt of hairpins on a sequencing array, two-state fit
# cond: sodium 0.088 M
readout_name: folding enthalpy (kcal/mol)
Numbers only, in kcal/mol.

Worked cases, folding enthalpy given:
[[record]]
construct_sequence = "GATCACGCTGTGATC ((((((...))))))"
unit_annotation = "kcal/mol"
value = -39.5

[[record]]
construct_sequence = "GACTCAGGAAACTGAGCC (.(((((....))))).)"
unit_annotation = "kcal/mol"
value = -16.5


For every record below, what is its folding enthalpy?
1. GATCACTGGGGTGATC ((((((....))))))
2. GCCGAGCGAAAGCCCAGC ((.(.((....)).).))
3. GCGTGCTCACGC ((((....))))
4. GATCGGACCTCCGATC ((((((....))))))
5. GGTTGCGGAAACGCAGTC (..((((....))))..)
6. GATCGTGCGTACGATC ((((((....))))))
7. GCACTGCGAAAGCGATGC (((..((....))..)))

### Response
1: -47.5; 2: -12.4; 3: -25; 4: -40.7; 5: -12.8; 6: -39.5; 7: -19.7

For every record below, what is its folding enthalpy?
1. GCGTGCGAAAGCATACGC ((((((....)))..)))
2. GGCACTACGAAAGTAGCC (((..(((....))))))

### Response
-28.9
-11.9

For every record below, what is its folding enthalpy?
1. GCTAACCGAAAGGTGAGC (((.(((....))).)))
2. GATTACCGAAAGGTGATC (((.(((....))).)))
3. GCGGTAGGAAACTACCAC (.(((((....))))).)
4. GCCCTTCCGAAAGGAGGC (((..(((....))))))
5. GAGTCGCGAAAGCGCTC (((.(((....))))))

### Response
1. -32.1
2. -37.5
3. -15.6
4. -17.7
5. -15.4
